- experimentDescription: qHTS Assay for Enhancers of SMN2 Splice Variant Expression; note: nearly all actives have a fitted effect of over 55% in size
- experimentalContext: HEK293 SMN2-luciferase splicing reporter, luminescence, 30-36 h; series mostly up to 46.1 µM
The whole screen tested about 210,000 compounds, of which about 5,900 (2.8%) were called active. About 5% were inconclusive and are not listed. Calls come from the whole dose curve; as a rule, active = well fitted activation curve with a large enough effect; inconclusive = small, poorly fitted or top-dose-only effect; inactive = no such curve, though single readings can be large or run the other way. The list comes from a sample in which actives are over-represented; it also holds close analogues and randomly drawn compounds.
Select the matching outcome among active, inactive

A selection of reference data follows.
COc1cc(CNCCSc2nnnn2C)ccc1OCc1ccc(Cl)cc1Cl | inactive
COCC(=O)N=Nc1c(O)[nH]c2ccccc12 | inactive
Cc1ccc(C)n1-c1nnc(N2CCC(C(=O)NCc3ccc(F)cc3)CC2)s1 | inactive

Qu. Dear all, I need the recorded test outcome for C/C(Nc1ccc2oc(=O)ccc2c1)=C1/C(=O)CC2[C@@H]1C2(C)C (stereo partly drawn) , thank you.
Ans. inactive

Qu. What do you get for O=C(Cn1cc(C(=O)c2cccs2)c2ccccc21)NCc1cccs1 ?
Ans. inactive

Qu. // same read-out, input: CCCNC(=O)CCn1nc(-c2ccccc2)c2ccccc2c1=O
Ans. inactive

Qu. Continue with Cc1ccc(S(=O)(=O)NCCN2CCOCC2)cc1C
Ans. inactive

Qu. Next up: COc1ccc(-n2ncc3c(N4CCc5ccccc54)ncnc32)cc1
Ans. active

Qu. Another compound: COc1ccc2nc(Nc3nc4cc5c(cc4s3)OCCO5)sc2c1
Ans. active
